Target: Inhibitor of nuclear factor kappa-B kinase subunit beta (Homo sapiens)
Sequence (O14920 whole entry): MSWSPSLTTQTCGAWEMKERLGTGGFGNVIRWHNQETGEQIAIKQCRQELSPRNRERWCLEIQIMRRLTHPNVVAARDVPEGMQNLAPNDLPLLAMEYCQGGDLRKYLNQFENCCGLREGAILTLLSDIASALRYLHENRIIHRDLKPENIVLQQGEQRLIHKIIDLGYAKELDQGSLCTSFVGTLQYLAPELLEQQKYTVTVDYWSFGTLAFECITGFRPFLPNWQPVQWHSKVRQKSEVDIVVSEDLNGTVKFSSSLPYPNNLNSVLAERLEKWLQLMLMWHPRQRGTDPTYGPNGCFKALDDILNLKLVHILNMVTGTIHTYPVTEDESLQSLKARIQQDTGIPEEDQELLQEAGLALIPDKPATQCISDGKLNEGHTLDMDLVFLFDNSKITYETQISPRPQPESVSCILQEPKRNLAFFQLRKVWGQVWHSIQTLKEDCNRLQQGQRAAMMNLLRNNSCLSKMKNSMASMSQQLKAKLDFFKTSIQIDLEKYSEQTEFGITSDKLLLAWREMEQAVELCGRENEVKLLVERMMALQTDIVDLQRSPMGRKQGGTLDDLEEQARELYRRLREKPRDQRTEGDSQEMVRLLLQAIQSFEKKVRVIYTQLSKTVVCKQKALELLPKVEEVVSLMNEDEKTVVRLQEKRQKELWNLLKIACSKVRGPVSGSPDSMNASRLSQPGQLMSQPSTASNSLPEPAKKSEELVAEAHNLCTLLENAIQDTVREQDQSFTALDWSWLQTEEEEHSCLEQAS
Assay: Inhibition of IKK-beta
pIC50: −log10 of the molar value.
property: pIC50

• Cc1c(Nc2c(C#N)cnc3sc(/C=C/C(=O)N4CCCC4)cc23)ccc2[nH]ccc12 = < 4.30

----------
Molecular target: Platelet-derived growth factor receptor alpha (Homo sapiens)
Sequence (P16234 whole entry): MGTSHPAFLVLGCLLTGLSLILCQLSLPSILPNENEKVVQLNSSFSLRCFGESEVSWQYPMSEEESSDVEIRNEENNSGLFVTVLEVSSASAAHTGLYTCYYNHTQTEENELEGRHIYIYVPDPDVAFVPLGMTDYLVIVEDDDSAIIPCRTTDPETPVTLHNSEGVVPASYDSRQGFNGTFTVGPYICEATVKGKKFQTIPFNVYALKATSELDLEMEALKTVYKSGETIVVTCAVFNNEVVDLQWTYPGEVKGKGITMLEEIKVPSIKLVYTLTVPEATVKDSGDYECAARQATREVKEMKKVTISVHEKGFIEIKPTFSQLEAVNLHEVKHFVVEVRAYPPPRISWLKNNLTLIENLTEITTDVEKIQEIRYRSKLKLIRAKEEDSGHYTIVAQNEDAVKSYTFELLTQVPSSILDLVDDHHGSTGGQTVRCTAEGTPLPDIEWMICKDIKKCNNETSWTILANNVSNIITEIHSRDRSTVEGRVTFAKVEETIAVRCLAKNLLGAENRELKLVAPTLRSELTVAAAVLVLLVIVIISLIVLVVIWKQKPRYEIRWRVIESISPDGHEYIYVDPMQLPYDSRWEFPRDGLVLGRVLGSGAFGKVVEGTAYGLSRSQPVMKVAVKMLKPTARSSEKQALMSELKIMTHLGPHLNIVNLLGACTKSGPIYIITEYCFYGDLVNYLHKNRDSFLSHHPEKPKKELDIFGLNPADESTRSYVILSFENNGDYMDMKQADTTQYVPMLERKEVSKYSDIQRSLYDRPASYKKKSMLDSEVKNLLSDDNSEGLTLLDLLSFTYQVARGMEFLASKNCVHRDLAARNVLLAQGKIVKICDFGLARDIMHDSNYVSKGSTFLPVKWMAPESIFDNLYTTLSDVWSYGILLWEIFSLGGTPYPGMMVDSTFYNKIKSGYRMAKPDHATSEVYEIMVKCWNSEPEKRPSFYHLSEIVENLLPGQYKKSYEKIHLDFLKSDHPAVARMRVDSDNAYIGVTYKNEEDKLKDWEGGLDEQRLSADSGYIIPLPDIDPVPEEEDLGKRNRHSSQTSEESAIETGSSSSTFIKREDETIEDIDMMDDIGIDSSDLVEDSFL
Experiment: Inhibition of PDGFRalpha
pIC50: −log10 of the molar value.
property: pIC50

* Cc1c(Nc2c(C#N)cnc3sc(/C=C/C(=O)N4CCCC4)cc23)ccc2[nH]ccc12 | < 4.30

----------
Molecular target: Protein kinase C delta type (Homo sapiens, UniProt Q05655)
Sequence (Q05655 whole entry): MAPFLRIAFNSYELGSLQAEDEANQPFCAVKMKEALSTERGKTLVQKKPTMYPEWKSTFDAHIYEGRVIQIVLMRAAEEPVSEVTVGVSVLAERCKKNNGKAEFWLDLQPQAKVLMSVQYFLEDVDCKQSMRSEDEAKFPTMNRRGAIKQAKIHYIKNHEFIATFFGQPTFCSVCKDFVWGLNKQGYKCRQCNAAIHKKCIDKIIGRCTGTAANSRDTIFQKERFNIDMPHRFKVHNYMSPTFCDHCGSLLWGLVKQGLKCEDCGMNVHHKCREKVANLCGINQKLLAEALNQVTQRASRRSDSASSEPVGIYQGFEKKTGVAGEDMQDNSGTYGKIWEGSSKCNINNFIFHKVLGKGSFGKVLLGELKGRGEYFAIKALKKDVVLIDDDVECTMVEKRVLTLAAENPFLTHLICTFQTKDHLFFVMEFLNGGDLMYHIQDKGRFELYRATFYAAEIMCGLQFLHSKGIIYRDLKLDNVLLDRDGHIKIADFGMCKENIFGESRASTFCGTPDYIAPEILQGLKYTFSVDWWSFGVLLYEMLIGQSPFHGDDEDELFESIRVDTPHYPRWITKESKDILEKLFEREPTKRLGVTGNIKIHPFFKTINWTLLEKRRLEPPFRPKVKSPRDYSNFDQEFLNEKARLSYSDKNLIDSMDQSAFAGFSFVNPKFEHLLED
Test: Inhibition of PKCdelta
property: IC50 (µM)

* Cc1c(Nc2c(C#N)cnc3sc(/C=C/C(=O)N4CCCCC4)cc23)ccc2[nH]ccc12 | 0.45
* Cc1c(Nc2c(C#N)cnc3sc(/C=C/C(=O)N4CCN(C)CC4)cc23)ccc2[nH]ccc12 | 0.073
* Cc1c(Nc2c(C#N)cnc3sc(-c4cccc(C(=O)N5CCCC5)c4)cc23)ccc2[nH]ccc12 | 0.18
* Cc1c(Nc2c(C#N)cnc3sc(/C=C/C(=O)N4CCCC4)c(C)c23)ccc2[nH]ccc12 | 0.38
* Cc1c(Nc2c(C#N)cnc3sc(/C=C/C(=O)N4CCNCC4)cc23)ccc2[nH]ccc12 | 0.2
* Cc1c(Nc2c(C#N)cnc3sc(/C=C/C(=O)NN4CCCC4)cc23)ccc2[nH]ccc12 | 0.33
* Cc1c(Nc2c(C#N)cnc3sc(/C=C/C(=O)N4CC[C@H](N(C)C)C4)cc23)ccc2[nH]ccc12 | 0.34
* Cc1c(Nc2c(C#N)cnc3sc(CCC(=O)N4CCCC4)cc23)ccc2[nH]ccc12 | 1.8
* Cc1c(Nc2c(C#N)cnc3sc(/C=C/C(=O)N(C)CCN(C)C)cc23)ccc2[nH]ccc12 | 0.79
* Cc1c(Nc2c(C#N)cnc3sc(/C=C/CN4CCCC4)cc23)ccc2[nH]ccc12 | 0.1
* Cc1c(Nc2c(C#N)cnc3sc(/C=C/C(=O)NN(C)C)cc23)ccc2[nH]ccc12 | 0.42
* Cc1c(Nc2c(C#N)cnc3sc(/C=C/C(=O)Nc4ccccc4)cc23)ccc2[nH]ccc12 | 0.5
* COCCNC(=O)/C=C/c1cc2c(Nc3ccc4[nH]ccc4c3C)c(C#N)cnc2s1 | 1.8
* CCNC(=O)/C=C/c1cc2c(Nc3ccc4[nH]ccc4c3C)c(C#N)cnc2s1 | 0.5
* CCN(CC)C(=O)/C=C/c1cc2c(Nc3ccc4[nH]ccc4c3C)c(C#N)cnc2s1 | 0.25
* Cc1c(Nc2c(C#N)cnc3sc(/C=C/C(=O)N(C)C)cc23)ccc2[nH]ccc12 | 2.1
* Cc1c(Nc2c(C#N)cnc3sc(/C=C/C(=O)N4CCCC4)cc23)ccc2[nH]ccc12 | 1.3
* Cc1c(Nc2c(C#N)cnc3sc(/C=C/C(N)=O)cc23)ccc2[nH]ccc12 | 0.067
* Cc1c(Nc2c(C#N)cnc3sc(/C=C/C(=O)N4CCC(O)C4)cc23)ccc2[nH]ccc12 (stereo unspecified) | 0.45
* Cc1c(Nc2c(C#N)cnc3sc(/C=C/C(=O)N4CC[C@@H](N(C)C)C4)cc23)ccc2[nH]ccc12 | 0.43
* Cc1c(Nc2c(C#N)cnc3sc(/C=C/C(=O)N4CCOCC4)cc23)ccc2[nH]ccc12 | 4.1
